assayed.system: MtATP-PRT (Mycobacterium tuberculosis)
Sequence (P9WMN1 1-284): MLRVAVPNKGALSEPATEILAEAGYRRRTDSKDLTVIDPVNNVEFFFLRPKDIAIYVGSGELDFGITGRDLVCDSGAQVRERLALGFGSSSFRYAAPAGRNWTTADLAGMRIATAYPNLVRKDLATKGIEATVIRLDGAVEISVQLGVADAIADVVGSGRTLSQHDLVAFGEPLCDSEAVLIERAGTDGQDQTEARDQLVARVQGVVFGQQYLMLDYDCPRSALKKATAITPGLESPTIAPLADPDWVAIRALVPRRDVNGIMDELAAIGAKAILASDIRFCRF
assay.procedure: Pre-steady-state stopped-flow burst kinetics
Format: biochemical
measurement.type: pKd
Scale: pKd equals -log10([C]), with [C] in mol/L.

Enter reported pKd observed with MtATP-PRT (Mycobacterium tuberculosis) for N[C@@H](Cc1c[nH]cn1)C(=O)O
4.55
